- Test system: UACC-62 melanoma
- Test name: NCI tumour cell line growth inhibition, 48 h
Field: TGI. Provide a value for each of the compounds that follow.

For each listed entry, give its TGI.
1. C=CC1(c2ccc(Cl)c(Cl)c2)OCCO1
2. S=C1CNC(=S)CN1
3. Cc1ccc(NC(=O)C2C(=O)C(=O)N(c3ccc(C)cc3)C2=O)cc1 (stereo not drawn)
4. COC1OC(COCc2ccc(Cl)cc2)C(OCc2ccc(Cl)cc2)C1O (stereo not drawn)
5. O=C(Nc1cccc(-n2cc(-c3ccncc3)c(-c3cc(O)cc(Cl)c3)n2)c1)Nc1ccc(Cl)c(Cl)c1
6. CCN(CC)/[N+]([O-])=N/OC
7. O=C(O)c1ccc([N+](=O)[O-])c(P(=O)(O)O)c1

1. > 100 µM
2. > 100 µM
3. > 100 µM
4. 31.9 µM
5. 3.76 µM
6. > 100 µM
7. > 100 µM

GET /values?readout=TGI&item= CCOC(=O)[C@H](Cc1ccccc1)NC(=O)c1nc[nH]c1[N+](=O)[O-]
> 100 µM

----------
Field: GI50. Provide a value for each of the molecules that follow.
- System: MDA-MB-231 breast
- Test name: NCI tumour cell line growth inhibition, 48 h

Sample records with GI50:
Compound smiles: O=[N+]([O-])c1ccc(Oc2cccnc2)c([N+](=O)[O-])c1
GI50: 2900 nM
--
Compound smiles: O=C(/C=C/c1ccccc1O)c1ccccc1
GI50: 12800 nM
--
Compound smiles: Clc1ccc(-c2nc(-c3c[nH]c4ncccc34)cs2)cc1
GI50: > 100000 nM

Shift focus to the following entry.
GET /values?readout=GI50&item= Clc1ccc(N/N=C/c2ccccn2)nc1
463 nM

----------
Field: TGI. Provide a value for each of the compounds that follow.
- System: SF-268 CNS
- Test name: NCI tumour cell line growth inhibition, 48 h

Sample records with TGI:
Compound: C/C(=C/CNc1ncnc2c1ncn2CCC(=O)O)CO
Measured on: SF-268 CNS
TGI: > 100 µM
//
Compound: CCNC(=O)Nc1ccc(-c2nc3c(c(N4CCOC[C@@H]4C)n2)CCN(C2COC2)C3)cc1
Measured on: SF-268 CNS
TGI: > 100 µM
//
Compound: Cc1oncc1C(=O)Nc1ccc(C(F)(F)F)cc1
Measured on: SF-268 CNS
TGI: > 100 µM
//
Compound: COC(=O)C(C(=O)C(=O)Nc1c(Cl)cc([N+](=O)[O-])cc1Cl)c1nc2cc(C)c(C)cc2[nH]c1=O (configuration not stated)
Measured on: SF-268 CNS
TGI: > 100 µM
//
Compound: COc1ccc(S(=O)(=O)Nc2cc(/C=C\c3cc(OC)c(OC)c(OC)c3)cc(OC)c2OC)cc1OC
Measured on: SF-268 CNS
TGI: > 100 µM

For each listed entry, give its TGI.
1. N#Cc1ccc(Nc2cnc3cc(N)ccc3n2)cc1
2. O=[N+]([O-])c1ccc(Oc2cccnc2)c([N+](=O)[O-])c1
3. CCOC(=O)CC/C(C)=N\n1c(Cc2ccc(Cl)cc2)n[nH]c1=O
4. COc1ccc(Cc2cc(OC)c(OC)c(OC)c2)cc1O
5. CN(C)C/C=C(/c1ccc(Br)cc1)c1cccnc1
6. C=CC1(c2ccc(Cl)c(Cl)c2)OCCO1
7. NCC(=O)Nc1ccc(-n2nc(C(F)(F)F)cc2-c2ccc3c(ccc4ccccc43)c2)cc1
8. CC(C)=CCC/C(C)=C/CC/C(C)=C/[C@@H]1[C@@H](CO)[C@]1(C)CC/C=C(\C)CCC=C(C)C

["> 100 µM", "36.4 µM", "> 100 µM", "> 100 µM", "> 100 µM", "> 100 µM", "2.75 µM", "40.8 µM"]
